Consider the following compounds; for each one, report its inhibition at 10 µM.
Biological target: LOK (Homo sapiens (Human))
Sequence (O94804 whole entry): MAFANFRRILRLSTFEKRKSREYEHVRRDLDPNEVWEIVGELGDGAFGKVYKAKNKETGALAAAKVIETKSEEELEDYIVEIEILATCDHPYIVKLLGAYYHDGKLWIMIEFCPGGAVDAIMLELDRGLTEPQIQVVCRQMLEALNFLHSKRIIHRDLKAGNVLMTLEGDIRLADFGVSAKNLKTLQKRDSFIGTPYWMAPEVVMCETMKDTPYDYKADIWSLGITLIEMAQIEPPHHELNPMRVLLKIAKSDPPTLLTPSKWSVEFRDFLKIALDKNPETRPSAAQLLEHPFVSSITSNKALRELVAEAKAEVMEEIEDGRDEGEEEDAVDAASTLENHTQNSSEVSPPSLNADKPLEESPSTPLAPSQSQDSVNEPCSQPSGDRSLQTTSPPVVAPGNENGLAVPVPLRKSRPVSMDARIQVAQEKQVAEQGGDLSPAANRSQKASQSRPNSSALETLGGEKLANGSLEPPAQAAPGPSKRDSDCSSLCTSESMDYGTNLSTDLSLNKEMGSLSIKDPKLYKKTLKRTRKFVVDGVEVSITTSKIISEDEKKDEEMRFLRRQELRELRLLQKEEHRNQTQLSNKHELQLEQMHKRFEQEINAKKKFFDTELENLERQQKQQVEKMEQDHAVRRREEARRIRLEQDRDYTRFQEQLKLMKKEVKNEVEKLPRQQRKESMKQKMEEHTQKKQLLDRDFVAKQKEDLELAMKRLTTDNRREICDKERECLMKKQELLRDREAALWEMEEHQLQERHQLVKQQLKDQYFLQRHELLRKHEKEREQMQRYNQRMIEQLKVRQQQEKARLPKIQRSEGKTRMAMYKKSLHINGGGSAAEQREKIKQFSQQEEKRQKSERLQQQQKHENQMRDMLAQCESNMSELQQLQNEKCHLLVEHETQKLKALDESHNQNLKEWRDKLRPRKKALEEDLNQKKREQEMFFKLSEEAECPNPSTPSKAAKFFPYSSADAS
Experiment: KiNativ assay
Type: binding
Details: H929 live cell, read-out: inhibition (10 μM)
Kindly provide the numeric value in % only, without the unit symbol.

The recorded inhibition at 10 µM for entry Nc1ncc(-c2ccc(NS(=O)(=O)C3CC3)cc2F)cc1-c1ccc2c(c1)CCNC2=O [Compound I-51] equals 96.9

The recorded inhibition at 10 µM for entry Nc1ncc(-c2cccc([N+](=O)[O-])c2F)cc1-c1ccc2c(c1)CCNC2=O [Compound I-9] equals 98.5

The recorded inhibition at 10 µM for entry CN(C1CC1)S(=O)(=O)c1ccc(-c2cnc(N)c(-c3ccc4c(c3)CCNC4=O)c2)c(F)c1 [Compound I-28] equals 85.5

The recorded inhibition at 10 µM for entry Nc1ncc(-c2cccc3ncsc23)cc1-c1ccc2c(c1)CCNC2=O [Compound I-13] equals 61.5

The recorded inhibition at 10 µM for entry COc1cc(NS(=O)(=O)C2CC2)ccc1-c1cnc(N)c(-c2ccc3c(c2)CCNC3=O)c1 [Compound I-50] equals 91.6

The recorded inhibition at 10 µM for entry Nc1ncc(-c2ccc(NS(=O)(=O)C3CC3)cc2OC2CCCCC2)cc1-c1ccc2c(c1)CCNC2=O [Compound I-65] equals 98.7

---

Consider the following compounds; for each one, report its inhibition (10 μM).
Tested on: FYN, SRC, YES
Assay: KiNativ assay
Assay type: binding
Conditions: H929 live cell
Kindly provide the numeric value in % only, without the unit symbol.

The recorded inhibition (10 μM) for entry Nc1ncc(-c2ccc(NS(=O)(=O)C3CC3)cc2OC2CCCCC2)cc1-c1ccc2c(c1)CCNC2=O [Compound I-65] equals −8.4

The recorded inhibition (10 μM) for entry Nc1ncc(-c2cccc3ncsc23)cc1-c1ccc2c(c1)CCNC2=O [Compound I-13] equals 0.3

The recorded inhibition (10 μM) for entry COc1cc(NS(=O)(=O)C2CC2)ccc1-c1cnc(N)c(-c2ccc3c(c2)CCNC3=O)c1 [Compound I-50] equals −2.0

The recorded inhibition (10 μM) for entry Nc1ncc(-c2cccc([N+](=O)[O-])c2F)cc1-c1ccc2c(c1)CCNC2=O [Compound I-9] equals 28.3

The recorded inhibition (10 μM) for entry Nc1ncc(-c2ccc(NS(=O)(=O)C3CC3)cc2F)cc1-c1ccc2c(c1)CCNC2=O [Compound I-51] equals −36.4

The recorded inhibition (10 μM) for entry CN(C1CC1)S(=O)(=O)c1ccc(-c2cnc(N)c(-c3ccc4c(c3)CCNC4=O)c2)c(F)c1 [Compound I-28] equals 2.2

---

Consider the following molecules; for each one, report its inhibition at 10 µM.
Biological target: MAST3 (Homo sapiens (Human), UniProt O60307)
Sequence (O60307 whole entry): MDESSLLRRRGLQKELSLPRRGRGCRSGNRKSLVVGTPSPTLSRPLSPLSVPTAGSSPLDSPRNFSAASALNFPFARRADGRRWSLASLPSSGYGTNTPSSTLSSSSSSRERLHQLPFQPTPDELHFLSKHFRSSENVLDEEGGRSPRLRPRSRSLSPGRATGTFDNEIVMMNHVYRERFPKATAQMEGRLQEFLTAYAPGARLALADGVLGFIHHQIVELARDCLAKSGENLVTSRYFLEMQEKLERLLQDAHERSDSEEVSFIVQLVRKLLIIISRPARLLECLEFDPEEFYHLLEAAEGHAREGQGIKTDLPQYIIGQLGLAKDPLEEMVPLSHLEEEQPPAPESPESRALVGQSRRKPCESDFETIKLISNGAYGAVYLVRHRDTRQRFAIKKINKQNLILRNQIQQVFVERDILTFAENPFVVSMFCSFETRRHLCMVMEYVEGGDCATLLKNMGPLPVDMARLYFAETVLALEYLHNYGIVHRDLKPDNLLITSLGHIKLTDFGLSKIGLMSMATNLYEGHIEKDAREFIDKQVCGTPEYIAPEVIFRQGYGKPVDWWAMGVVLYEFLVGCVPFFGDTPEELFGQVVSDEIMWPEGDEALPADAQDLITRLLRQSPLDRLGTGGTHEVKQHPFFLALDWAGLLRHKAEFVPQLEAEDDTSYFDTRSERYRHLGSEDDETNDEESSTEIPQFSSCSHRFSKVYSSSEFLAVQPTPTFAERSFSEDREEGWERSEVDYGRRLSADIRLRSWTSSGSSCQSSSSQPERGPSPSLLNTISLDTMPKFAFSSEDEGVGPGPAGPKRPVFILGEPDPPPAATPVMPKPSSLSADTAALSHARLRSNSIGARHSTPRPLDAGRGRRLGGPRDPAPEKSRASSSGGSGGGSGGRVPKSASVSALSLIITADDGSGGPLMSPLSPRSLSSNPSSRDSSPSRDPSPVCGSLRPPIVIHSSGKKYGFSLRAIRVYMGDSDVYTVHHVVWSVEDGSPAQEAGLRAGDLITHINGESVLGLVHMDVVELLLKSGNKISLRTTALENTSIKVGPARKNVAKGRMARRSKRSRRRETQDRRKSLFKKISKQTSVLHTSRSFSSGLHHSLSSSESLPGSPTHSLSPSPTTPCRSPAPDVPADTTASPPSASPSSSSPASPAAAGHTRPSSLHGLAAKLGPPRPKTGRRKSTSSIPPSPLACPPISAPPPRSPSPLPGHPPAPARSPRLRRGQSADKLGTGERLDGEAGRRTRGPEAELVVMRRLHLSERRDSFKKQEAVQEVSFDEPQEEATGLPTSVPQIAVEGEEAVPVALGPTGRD
Experiment: KiNativ assay
Type: binding
Conditions: H929 live cell, read-out: inhibition (10 μM)
Kindly provide the numeric value in % only, without the unit symbol.

The recorded inhibition at 10 µM for entry Nc1ncc(-c2cccc([N+](=O)[O-])c2F)cc1-c1ccc2c(c1)CCNC2=O equals 31.2

The recorded inhibition at 10 µM for entry Nc1ncc(-c2ccc(NS(=O)(=O)C3CC3)cc2F)cc1-c1ccc2c(c1)CCNC2=O equals 7

The recorded inhibition at 10 µM for entry Nc1ncc(-c2ccc(NS(=O)(=O)C3CC3)cc2OC2CCCCC2)cc1-c1ccc2c(c1)CCNC2=O equals -7.5

The recorded inhibition at 10 µM for entry COc1cc(NS(=O)(=O)C2CC2)ccc1-c1cnc(N)c(-c2ccc3c(c2)CCNC3=O)c1 equals -0.5

The recorded inhibition at 10 µM for entry Nc1ncc(-c2cccc3ncsc23)cc1-c1ccc2c(c1)CCNC2=O equals 22

The recorded inhibition at 10 µM for entry CN(C1CC1)S(=O)(=O)c1ccc(-c2cnc(N)c(-c3ccc4c(c3)CCNC4=O)c2)c(F)c1 equals 14.2

---

Consider the following compounds; for each one, report its inhibition at 10 µM.
Molecular target: AKT1 (Homo sapiens (Human))
Sequence (P31749 whole entry): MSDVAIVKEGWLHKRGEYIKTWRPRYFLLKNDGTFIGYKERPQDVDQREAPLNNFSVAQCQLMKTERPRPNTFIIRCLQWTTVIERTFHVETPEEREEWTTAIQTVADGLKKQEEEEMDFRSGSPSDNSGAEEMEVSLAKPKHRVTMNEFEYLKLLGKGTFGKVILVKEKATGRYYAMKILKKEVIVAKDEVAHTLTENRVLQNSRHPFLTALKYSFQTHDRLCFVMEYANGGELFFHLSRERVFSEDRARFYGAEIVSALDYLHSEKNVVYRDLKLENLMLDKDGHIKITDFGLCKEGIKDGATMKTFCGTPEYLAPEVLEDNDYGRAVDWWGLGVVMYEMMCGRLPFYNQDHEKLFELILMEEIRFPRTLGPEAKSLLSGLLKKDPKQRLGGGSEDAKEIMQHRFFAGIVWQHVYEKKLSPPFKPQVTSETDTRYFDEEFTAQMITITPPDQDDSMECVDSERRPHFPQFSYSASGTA
Test: KiNativ assay
Type: binding
Conditions: H929 live cell, read-out: inhibition (10 μM)
Report as: number unit

Here Nc1ncc(-c2ccc(NS(=O)(=O)C3CC3)cc2F)cc1-c1ccc2c(c1)CCNC2=O was tested on AKT1 (Homo sapiens (Human)), and its inhibition at 10 µM came to -15.2%

Here Nc1ncc(-c2ccc(NS(=O)(=O)C3CC3)cc2OC2CCCCC2)cc1-c1ccc2c(c1)CCNC2=O was tested on AKT1 (Homo sapiens (Human)), and its inhibition at 10 µM came to 1.6%

Here Nc1ncc(-c2cccc3ncsc23)cc1-c1ccc2c(c1)CCNC2=O was tested on AKT1 (Homo sapiens (Human)), and its inhibition at 10 µM came to 26.4%

Here Nc1ncc(-c2cccc([N+](=O)[O-])c2F)cc1-c1ccc2c(c1)CCNC2=O was tested on AKT1 (Homo sapiens (Human)), and its inhibition at 10 µM came to 32.8%

Here COc1cc(NS(=O)(=O)C2CC2)ccc1-c1cnc(N)c(-c2ccc3c(c2)CCNC3=O)c1 was tested on AKT1 (Homo sapiens (Human)), and its inhibition at 10 µM came to 2.1%

Here CN(C1CC1)S(=O)(=O)c1ccc(-c2cnc(N)c(-c3ccc4c(c3)CCNC4=O)c2)c(F)c1 was tested on AKT1 (Homo sapiens (Human)), and its inhibition at 10 µM came to 11.1%

---

Consider the following compounds; for each one, report its inhibition at 10 µM.
Molecular target: p70S6Kb (Homo sapiens (Human), UniProt Q9UBS0)
Sequence (Q9UBS0 whole entry): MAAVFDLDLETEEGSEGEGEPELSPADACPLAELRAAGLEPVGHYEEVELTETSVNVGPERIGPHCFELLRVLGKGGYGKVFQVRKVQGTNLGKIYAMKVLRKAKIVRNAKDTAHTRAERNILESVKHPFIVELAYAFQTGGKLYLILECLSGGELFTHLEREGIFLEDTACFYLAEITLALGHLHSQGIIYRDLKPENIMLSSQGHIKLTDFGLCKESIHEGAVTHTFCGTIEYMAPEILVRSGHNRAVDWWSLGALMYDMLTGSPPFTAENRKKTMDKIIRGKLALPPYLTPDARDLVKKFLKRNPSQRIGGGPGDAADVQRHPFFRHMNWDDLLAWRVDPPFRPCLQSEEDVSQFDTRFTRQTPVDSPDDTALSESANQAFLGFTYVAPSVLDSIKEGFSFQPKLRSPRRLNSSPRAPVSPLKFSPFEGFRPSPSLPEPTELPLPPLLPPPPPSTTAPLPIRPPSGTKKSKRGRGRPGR
Test: KiNativ assay
Type: binding
Conditions: H929 live cell, read-out: inhibition (10 μM)
Kindly provide the numeric value in % only, without the unit symbol.

Here Nc1ncc(-c2cccc([N+](=O)[O-])c2F)cc1-c1ccc2c(c1)CCNC2=O [Compound I-9] was tested on p70S6Kb (Homo sapiens (Human), UniProt Q9UBS0), and its inhibition at 10 µM came to -84.5

Here Nc1ncc(-c2cccc3ncsc23)cc1-c1ccc2c(c1)CCNC2=O [Compound I-13] was tested on p70S6Kb (Homo sapiens (Human), UniProt Q9UBS0), and its inhibition at 10 µM came to -17.4

Here Nc1ncc(-c2ccc(NS(=O)(=O)C3CC3)cc2OC2CCCCC2)cc1-c1ccc2c(c1)CCNC2=O [Compound I-65] was tested on p70S6Kb (Homo sapiens (Human), UniProt Q9UBS0), and its inhibition at 10 µM came to 32

Here CN(C1CC1)S(=O)(=O)c1ccc(-c2cnc(N)c(-c3ccc4c(c3)CCNC4=O)c2)c(F)c1 [Compound I-28] was tested on p70S6Kb (Homo sapiens (Human), UniProt Q9UBS0), and its inhibition at 10 µM came to -14.4

Here COc1cc(NS(=O)(=O)C2CC2)ccc1-c1cnc(N)c(-c2ccc3c(c2)CCNC3=O)c1 [Compound I-50] was tested on p70S6Kb (Homo sapiens (Human), UniProt Q9UBS0), and its inhibition at 10 µM came to 14

Here Nc1ncc(-c2ccc(NS(=O)(=O)C3CC3)cc2F)cc1-c1ccc2c(c1)CCNC2=O [Compound I-51] was tested on p70S6Kb (Homo sapiens (Human), UniProt Q9UBS0), and its inhibition at 10 µM came to 5.5

---

Molecular target: STLK3 (Homo sapiens (Human), UniProt Q9UEW8)
Assay: KiNativ assay
Format: binding
Conditions: H929 live cell, read-out: inhibition (10 μM)
Consider the following molecules; for each one, report its inhibition at 10 µM.
Kindly provide the numeric value in % only, without the unit symbol.

The recorded inhibition at 10 µM for entry COc1cc(NS(=O)(=O)C2CC2)ccc1-c1cnc(N)c(-c2ccc3c(c2)CCNC3=O)c1 equals -12.3

The recorded inhibition at 10 µM for entry Nc1ncc(-c2cccc3ncsc23)cc1-c1ccc2c(c1)CCNC2=O equals 1.1

The recorded inhibition at 10 µM for entry Nc1ncc(-c2cccc([N+](=O)[O-])c2F)cc1-c1ccc2c(c1)CCNC2=O equals -22.9

The recorded inhibition at 10 µM for entry Nc1ncc(-c2ccc(NS(=O)(=O)C3CC3)cc2F)cc1-c1ccc2c(c1)CCNC2=O equals -5

The recorded inhibition at 10 µM for entry Nc1ncc(-c2ccc(NS(=O)(=O)C3CC3)cc2OC2CCCCC2)cc1-c1ccc2c(c1)CCNC2=O equals 31.4

The recorded inhibition at 10 µM for entry CN(C1CC1)S(=O)(=O)c1ccc(-c2cnc(N)c(-c3ccc4c(c3)CCNC4=O)c2)c(F)c1 equals 13.5

---

Consider the following molecules; for each one, report its inhibition at 10 µM.
Target: MST2 (Homo sapiens (Human))
Sequence (Q13188 whole entry): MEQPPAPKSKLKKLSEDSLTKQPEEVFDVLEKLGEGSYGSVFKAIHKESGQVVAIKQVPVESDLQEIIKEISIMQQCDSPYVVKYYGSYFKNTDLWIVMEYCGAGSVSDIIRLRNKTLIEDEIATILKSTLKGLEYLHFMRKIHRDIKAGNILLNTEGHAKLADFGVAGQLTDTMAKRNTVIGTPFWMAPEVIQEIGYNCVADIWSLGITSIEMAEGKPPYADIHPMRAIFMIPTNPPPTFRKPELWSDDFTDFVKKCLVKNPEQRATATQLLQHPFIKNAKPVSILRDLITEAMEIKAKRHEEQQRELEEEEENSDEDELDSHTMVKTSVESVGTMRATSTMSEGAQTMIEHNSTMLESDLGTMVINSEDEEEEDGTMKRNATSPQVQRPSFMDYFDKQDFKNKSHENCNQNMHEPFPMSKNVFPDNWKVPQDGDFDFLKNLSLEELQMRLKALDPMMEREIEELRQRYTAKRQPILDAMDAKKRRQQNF
Assay: KiNativ assay
Format: binding
Conditions: H929 live cell, read-out: inhibition (10 μM)
Kindly provide the numeric value in % only, without the unit symbol.

The recorded inhibition at 10 µM for entry Nc1ncc(-c2ccc(NS(=O)(=O)C3CC3)cc2F)cc1-c1ccc2c(c1)CCNC2=O equals 95.3

The recorded inhibition at 10 µM for entry Nc1ncc(-c2ccc(NS(=O)(=O)C3CC3)cc2OC2CCCCC2)cc1-c1ccc2c(c1)CCNC2=O equals 97.3

The recorded inhibition at 10 µM for entry COc1cc(NS(=O)(=O)C2CC2)ccc1-c1cnc(N)c(-c2ccc3c(c2)CCNC3=O)c1 equals 97.5

The recorded inhibition at 10 µM for entry CN(C1CC1)S(=O)(=O)c1ccc(-c2cnc(N)c(-c3ccc4c(c3)CCNC4=O)c2)c(F)c1 equals 89.3

The recorded inhibition at 10 µM for entry Nc1ncc(-c2cccc3ncsc23)cc1-c1ccc2c(c1)CCNC2=O equals 85.5

The recorded inhibition at 10 µM for entry Nc1ncc(-c2cccc([N+](=O)[O-])c2F)cc1-c1ccc2c(c1)CCNC2=O equals 88.9
